Test: Non-ionized thermodynamic solubility determination at 37° C.
Details: 13 mM hydrochloric acid buffer, pH 2, aqueous buffer, thermodynamic from solid, NON-IONIZED SOLUBILITY, I = pH 2.00 13 mM hydrochloric acid buffer at 37° C.
Protocol: Five 1.5 mL centrifuge tubes were labeled and prepared with 1 mL of the appropriate non-ionizing buffer (see Table 5). Solid drug in powder form was added to each individual vial and then vortexed. The addition of drug and vortex mixing was repeated until there was visible undissolved drug powder present. […] The internal temperature was determined by measuring the temperature of a “blank” tube in the rack. […]
reportedMetric: solubility thermodynamic at 48 h
Write the numeric value and append its unit.

Quick one: solubility thermodynamic at 48 h for `CC(=O)[C@H]1CC[C@H]2[C@@H]3CCC4=CC(=O)CC[C@]4(C)[C@H]3CC[C@]12C` ?
21.3 mg/mL

* * *

assay: physchem; details: pH 2, aqueous buffer, thermodynamic from solid, NON-IONIZED SOLUBILITY
reportedMetric: solubility thermodynamic at 48 h

Quick one: solubility thermodynamic at 48 h for CC(C)Cc1ccc(C(C)C(=O)O)cc1 (stereo not shown) [IBUPROFEN, Ibuprofen] ?
60 mg/mL

* * *

assay: Partition coefficient measurements in PDMS membranes; type: physicochemical; settings: intrinsic non-ionized partition coefficient, N = 5
Counter-ions that a name gives are not always drawn.
For each of the compounds below, state its PDMS LOGK.
Lab note: jot the number down without any unit.

Quick one: PDMS LOGK for `CC(=O)[C@H]1CC[C@H]2[C@@H]3CCC4=CC(=O)CC[C@]4(C)[C@H]3CC[C@]12C` ?
2.03

Quick one: PDMS LOGK for CC(C(=O)O)c1cccc(C(=O)c2ccccc2)c1 (centres unmarked) ?
0.56

Quick one: PDMS LOGK for `O=C(O)c1ccccc1` ?
0.10

Quick one: PDMS LOGK for CC(C)Cc1ccc(C(C)C(=O)O)cc1 (centres unmarked) ?
1.79

Quick one: PDMS LOGK for COCCc1ccc(OCC(O)CNC(C)C)cc1 (centres unmarked) [METOPROLOL TARTRATE, Metoprolol Tartrate] ?
0.68

* * *

assay: Non-ionized thermodynamic solubility determination at 37° C.; conditions: 13 mM hydrochloric acid buffer, pH 2, aqueous buffer, thermodynamic from solid, NON-IONIZED SOLUBILITY (ANALY. COMP.), second determination as analytical check with different dilution; pH 2.00 13 mM hydrochloric acid buffer at 37° C.
reportedMetric: solubility thermodynamic at 48 h (mg/mL)
Answer in mg/mL, number only, no unit symbol.

Quick one: solubility thermodynamic at 48 h for CC(=O)[C@H]1CC[C@H]2[C@@H]3CCC4=CC(=O)CC[C@]4(C)[C@H]3CC[C@]12C [PROGESTERONE, Progesterone] ?
20.9
